All values here come from the supplement of paper PMC3334620.

Target: Ylr278c (UniProt Q05854)
Sequence (Q05854 whole entry): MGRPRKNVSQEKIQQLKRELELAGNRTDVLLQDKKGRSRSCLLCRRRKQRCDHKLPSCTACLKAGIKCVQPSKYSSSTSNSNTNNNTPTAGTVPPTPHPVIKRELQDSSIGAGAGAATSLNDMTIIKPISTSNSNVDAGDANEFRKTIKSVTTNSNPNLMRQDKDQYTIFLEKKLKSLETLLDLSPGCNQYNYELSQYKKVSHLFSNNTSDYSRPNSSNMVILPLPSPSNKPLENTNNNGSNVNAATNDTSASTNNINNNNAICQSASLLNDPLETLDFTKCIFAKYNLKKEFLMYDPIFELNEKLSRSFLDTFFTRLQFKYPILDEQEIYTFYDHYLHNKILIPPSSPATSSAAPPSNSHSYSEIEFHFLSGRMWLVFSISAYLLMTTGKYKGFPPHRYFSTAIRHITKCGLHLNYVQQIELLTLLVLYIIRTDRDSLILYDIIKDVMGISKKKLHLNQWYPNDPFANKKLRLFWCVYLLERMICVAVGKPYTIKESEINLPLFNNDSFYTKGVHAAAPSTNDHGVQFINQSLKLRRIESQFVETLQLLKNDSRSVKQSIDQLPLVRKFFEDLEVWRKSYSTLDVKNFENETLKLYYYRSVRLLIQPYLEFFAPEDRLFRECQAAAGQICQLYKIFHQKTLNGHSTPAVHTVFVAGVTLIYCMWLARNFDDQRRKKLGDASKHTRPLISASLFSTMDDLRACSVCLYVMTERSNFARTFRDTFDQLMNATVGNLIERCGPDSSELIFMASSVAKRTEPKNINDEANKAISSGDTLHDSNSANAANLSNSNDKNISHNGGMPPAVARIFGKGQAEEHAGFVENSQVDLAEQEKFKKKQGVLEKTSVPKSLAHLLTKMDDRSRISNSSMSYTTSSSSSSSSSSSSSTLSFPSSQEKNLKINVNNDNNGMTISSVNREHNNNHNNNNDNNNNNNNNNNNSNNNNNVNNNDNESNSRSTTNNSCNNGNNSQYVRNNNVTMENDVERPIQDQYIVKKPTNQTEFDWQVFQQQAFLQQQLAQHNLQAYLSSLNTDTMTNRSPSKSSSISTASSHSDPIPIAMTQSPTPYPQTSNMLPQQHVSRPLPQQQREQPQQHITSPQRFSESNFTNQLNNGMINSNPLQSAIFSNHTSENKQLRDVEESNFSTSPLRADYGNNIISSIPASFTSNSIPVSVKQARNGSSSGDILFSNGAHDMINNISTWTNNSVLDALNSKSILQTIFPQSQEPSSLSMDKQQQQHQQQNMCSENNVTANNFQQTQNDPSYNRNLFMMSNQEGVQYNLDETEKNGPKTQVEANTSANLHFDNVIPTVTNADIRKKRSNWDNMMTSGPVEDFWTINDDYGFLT
Test: PBM E-score (8-mer binding enrichment) (E-score (-0.5 to 0.5)); higher = stronger / more preferred TF binding
Settings: protein concentration: 200 nM; construct: GST-DNA-binding domain
The full ranking holds about 33,000 sequences; the median of “E-score (-0.5 to 0.5)” is about -0.054, and the highest 2% start at about 0.39. What follows is part of a selection rich in the highest values, with near analogues and random picks from the rest.
# binning rule on PBM E-score: lower band = under -0.1, central band = from -0.1 up to 0.08, upper band = 0.08 and over

Example entries begin here.
AAGACGCA: central band
ACCTCCGC: upper band
ACCTCCAC: central band
ACCCGGAG: upper band
AGAGGTGC: central band
CATTGGGA: lower band
ACCTCCTG: lower band
ACCTCCGG: upper band
ACCTCCGT: upper band
AAACCAGC: central band

Please let me know in which category the item CATAGGAC belongs. lower band

Please let me know in which category the item AAGGGCTA belongs. lower band

Please let me know in which category the item CCCTCCTA belongs. lower band

Please let me know in which category the item CCCTCCGA belongs. upper band

Please let me know in which category the item CGCGCTTA belongs. upper band

Please let me know in which category the item GCCCGGAA belongs. upper band

Please let me know in which category the item AAGCGTTG belongs. lower band

Please let me know in which category the item ACCTCCTC belongs. central band

Please let me know in which category the item ACTTGACG belongs. lower band

Please let me know in which category the item GAGTGACA belongs. central band

Please let me know in which category the item ATACCTTG belongs. lower band

Please let me know in which category the item CCTGACTA belongs. central band

---

Target: Ylr278c (UniProt Q05854)
Experiment: PBM E-score (8-mer binding enrichment) (E-score (-0.5 to 0.5)); higher = stronger / more preferred TF binding
Details: protein concentration: 200 nM; construct: GST-DNA-binding domain
The full ranking holds about 33,000 sequences; the median of “E-score (-0.5 to 0.5)” is about -0.054, and the highest 2% start at about 0.39. The list comes from a sample in which the highest values are over-represented; it also holds close analogues and randomly drawn sequences.
Label scheme for PBM E-score: lower than -0.01 is N, -0.01 and above is Y.

Given the entry ATCCTCCG , answer whether its PBM E-score meets or surpasses -0.01. Y

Given the entry AGTCCAAA , answer whether its PBM E-score meets or surpasses -0.01. N

Given the entry TACGCCGA , answer whether its PBM E-score meets or surpasses -0.01. Y

Given the entry CGTCCGAG , answer whether its PBM E-score meets or surpasses -0.01. Y

Given the entry AGTCCGAT , answer whether its PBM E-score meets or surpasses -0.01. Y

Given the entry AAAAGCCG , answer whether its PBM E-score meets or surpasses -0.01. Y

Given the entry ACCGCCGG , answer whether its PBM E-score meets or surpasses -0.01. Y

Given the entry CACGCCGA , answer whether its PBM E-score meets or surpasses -0.01. Y

Given the entry AGTCCGAA , answer whether its PBM E-score meets or surpasses -0.01. Y

Given the entry ATCCTCCC , answer whether its PBM E-score meets or surpasses -0.01. Y

Given the entry AGTCCTAT , answer whether its PBM E-score meets or surpasses -0.01. N

Given the entry AAAAGCCT , answer whether its PBM E-score meets or surpasses -0.01. N

Given the entry AACCTCCG , answer whether its PBM E-score meets or surpasses -0.01. Y

Given the entry AACCTCCT , answer whether its PBM E-score meets or surpasses -0.01. N

Given the entry CCTAGCAG , answer whether its PBM E-score meets or surpasses -0.01. N

Given the entry ATGGCTGA , answer whether its PBM E-score meets or surpasses -0.01. N

Given the entry CGCCTCCA , answer whether its PBM E-score meets or surpasses -0.01. Y

Given the entry CCCAGTCC , answer whether its PBM E-score meets or surpasses -0.01. N

Given the entry CCCGCCGG , answer whether its PBM E-score meets or surpasses -0.01. Y

Given the entry AGCCTCCG , answer whether its PBM E-score meets or surpasses -0.01. Y

Given the entry CACCTCCC , answer whether its PBM E-score meets or surpasses -0.01. N

Given the entry CACCTCCA , answer whether its PBM E-score meets or surpasses -0.01. Y

---

Target: Ylr278c (UniProt Q05854)
Assay: PBM E-score (8-mer binding enrichment) (E-score (-0.5 to 0.5)); higher = stronger / more preferred TF binding
Details: protein concentration: 200 nM; construct: GST-DNA-binding domain
Over roughly 33,000 sequences, “E-score (-0.5 to 0.5)” has its median near -0.054; the highest 2% begin near 0.39. The sample as a whole holds a higher share of the highest values than the screen did.
EXPERIMENTAL_READOUT: PBM E-score
Number only, no unit.

Previously resolved entries follow.
AAGCGCAA: 0.0312
AATATGCC: -0.0168
GACTGCTA: -0.277
AGAGCTGC: -0.0659
AAATGTGA: -0.146
ACCGATCG: 0.26
CTCGTTCC: 0.165
AAGCGGCG: 0.222

Requested read-out: PBM E-score. Entry: CCAGCTCC 0.22

Requested read-out: PBM E-score. Entry: AAAGCAGC -0.0496

Requested read-out: PBM E-score. Entry: AAACCCTC -0.0128

---

Biological target: Ylr278c (UniProt Q05854)
Test: PBM E-score (8-mer binding enrichment) (E-score (-0.5 to 0.5)); higher = stronger / more preferred TF binding
Conditions: protein concentration: 200 nM; construct: GST-DNA-binding domain
The full ranking holds about 33,000 sequences; the median of “E-score (-0.5 to 0.5)” is about -0.054, and the highest 2% start at about 0.39. This excerpt belongs to a sample that is enriched for the highest values.
EXPERIMENTAL_READOUT: PBM E-score
Number only, no unit.

Previously resolved entries follow.
ATGTTCCG: 0.429
TACGCGAA: -0.0238
CCGTTCCA: 0.0158
CCACATCC: 0.0271
AAATCTTA: -0.149
TGTCCAAA: -0.0727
TCCGGAGA: 0.483
AGACAGTC: -0.129

# input for lookup
Requested read-out: PBM E-score. Entry: AACTTCCT 0.00298

---

Biological target: Ylr278c (UniProt Q05854)
Test: PBM E-score (8-mer binding enrichment) (E-score (-0.5 to 0.5)); higher = stronger / more preferred TF binding
Details: protein concentration: 200 nM; construct: GST-DNA-binding domain
In all, about 33,000 sequences were measured (“E-score (-0.5 to 0.5)”: median about -0.054, highest 2% from about 0.39 on). The sample as a whole holds a higher share of the highest values than the screen did.
Label scheme for PBM E-score: lower than 0.1 is Not met, 0.1 and above is Met.

Example entries begin here.
AATCCGCT: Met
GATCCGAA: Met
TAGTCCCA: Not met
AATCCAGT: Met
ATACCCCG: Met

Given the entry CTGAGATC , answer whether its PBM E-score meets or surpasses 0.1. Not met

Given the entry ACCCCCGG , answer whether its PBM E-score meets or surpasses 0.1. Met

Given the entry CGCTTTTA , answer whether its PBM E-score meets or surpasses 0.1. Met

Given the entry AAGTCCTA , answer whether its PBM E-score meets or surpasses 0.1. Not met

Given the entry CATCCGGA , answer whether its PBM E-score meets or surpasses 0.1. Met

Given the entry AGTCCGGC , answer whether its PBM E-score meets or surpasses 0.1. Met

Given the entry CAACCCGG , answer whether its PBM E-score meets or surpasses 0.1. Met

Given the entry CTTAGTCA , answer whether its PBM E-score meets or surpasses 0.1. Not met

Given the entry CGGAGATA , answer whether its PBM E-score meets or surpasses 0.1. Met

Given the entry AGTCCCCC , answer whether its PBM E-score meets or surpasses 0.1. Not met

Given the entry CATCCGTA , answer whether its PBM E-score meets or surpasses 0.1. Met

Given the entry GCCTCCGC , answer whether its PBM E-score meets or surpasses 0.1. Met

Given the entry ATACCCCA , answer whether its PBM E-score meets or surpasses 0.1. Not met

Given the entry AGTCCCGG , answer whether its PBM E-score meets or surpasses 0.1. Met

Given the entry AGGAGATC , answer whether its PBM E-score meets or surpasses 0.1. Not met

Given the entry TAGTCCAA , answer whether its PBM E-score meets or surpasses 0.1. Not met

Given the entry CGGATATA , answer whether its PBM E-score meets or surpasses 0.1. Met

Given the entry CAGTCCGC , answer whether its PBM E-score meets or surpasses 0.1. Met

Given the entry CAACCCCG , answer whether its PBM E-score meets or surpasses 0.1. Met

Given the entry CACCAAAC , answer whether its PBM E-score meets or surpasses 0.1. Not met

Given the entry AGTCCGTC , answer whether its PBM E-score meets or surpasses 0.1. Met

Given the entry TCTGCACA , answer whether its PBM E-score meets or surpasses 0.1. Not met
